Tested on: P12-Ichikawa
assayComment: cell viability relative to DMSO control; higher = less cytotoxic
measurementParameters: HPLM + 10% dialyzed FBS; 48 h; 0.569 µM
A collection of compounds and their measured cell viability
Output spec: scalar in %, unitless text.

A selection of reference data follows.
Per the record, CC[N+](CC)(CC)CCOc1cccc(OCC[N+](CC)(CC)CC)c1OCC[N+](CC)(CC)CC has cell viability of 98.9

Per the records, this compound ( OC[C@H]1O[C@H](C[C@@H]1O)N2\C=C(F)/C(=O)NC2=O ) has cell viability equal to 33.3

Value of measured cell viability for the entry COc1cccc2c1C(=O)c1c(O)c3c(c(O)c1C2=O)C[C@@](O)(C(=O)CO)C[C@@H]3O[C@H]1C[C@H](N)[C@H](O[C@H]2CCCCO2)[C@H](C)O1 : 121

ClC1=CC=C2N/C3=N/C(=O)CN3CC2=C1Cl has a reported cell viability of 118

Measured cell viability of Cc1cc(O)c2c(c1)C(=O)c1cccc(O)c1C2=O : 128

Continuing:
The compound listed as CCOc1cc2ncc(C#N)c(Nc3ccc(F)c(Cl)c3)c2cc1NC(=O)/C=C/CN(C)C shows cell viability equal to 80.9

cell viability in this record for O=C(CC12CC3CC(CC(C3)C1)C2)Nc1cccc2nc(NCCNCCO)ccc12 : 98.2

Record COc1cc([C@@H](CC(=O)O)c2ccc(C)c(CN3C[C@@H](C)Oc4ccccc4[S+]3(=O)[O-])c2)cc2nnn(C)c12 . Reported cell viability: 115

Looking up [O-]C(=O)C/1=N/C(=O)NC(=O)N1 , I see its cell viability listed as 90.1

Noted for C[C@@H]1CCN(C(=O)CC#N)C[C@@H]1N(C)c1ncnc2[nH]ccc12 : its cell viability reads 86.2

CC(C)=CCC/C(C)=C/CC/C(C)=C/CSc1ccccc1C(=O)O yielded cell viability of 91.2

The value of cell viability measured for the compound N#C/C(=C\c1ccc(O)c(O)c1)C(=O)NCc1ccccc1 turned out to be 103

Per the records, this compound ( CC[C@]12CC[C@H]3[C@@H](CCC/4=C/C(=O)CC[C@H]34)[C@@H]1CC[C@@]2(O)C#C ) has cell viability equal to 68.9

Per the records, this compound ( O=C(CCCCCCC(=O)Nc1cccnc1)NO ) has cell viability equal to 99.5

// recorded cell viability for Cc1c(-c2cccc3c(CCCOc4cccc5ccccc45)c(C(=O)O)n(Cc4cccnc4)c23)c(COc2ccc(N3CCN([S+](=O)([O-])N(C)C)CC3)cc2)nn1C : 88.5
